# LC retention time annotations
test_details: RP, 50 × 2.1 mm, 1.7 µm, 0.5 mL/min, estimated dead time 0.22 min; A: 98% water + 2% acetonitrile + 0.1% formic acid, pH 3; B: 2% water + 98% acetonitrile + 0.1% formic acid, pH 3; gradient (min/%B) 0/0 0.5/0 4/60 8/100 9/100 9.2/0 10/0
condition_set: stereoisomer not certain
endpoint: LC retention time (min)

INSERT INTO results (compound, numeric_result) VALUES
  ('Oc1ccc(C(c2ccc(O)cc2)(C(F)(F)F)C(F)(F)F)cc1', 0.397),
  ('CCCCCC=CCC=CCC=CCC=CCCCC(=O)OC(CO)COP(=O)(O)OCCN (stereo not drawn) [LPE (0:0/20:4(5Z,8Z,11Z,14Z)]', 4.74),
  ('CCCCCCCCCCCCCCCCCC(=O)OCC(O)COP(=O)([O-])OCC[N+](C)(C)C (stereo not drawn)', 5.64);
